- Test system: S. cerevisiae vps1Δ apl2Δ growth inhibition, dose response
- ASSAY_OVERVIEW: growth inhibition of vps1Δ apl2Δ yeast, dose response, post-Golgi transport modulator project, S. cerevisiae, background strain comparison (AID 788)
The source made the active and inactive calls. No rule for the calls is given here.
Output constraint: value belongs to label 1 (active), label 0 (inactive)

Assay result, entry C/C(CCC12CC3CC(CC(C3)C1)C2)=N\NC(N)=S — outcome?
label 1

Outcome? CS(=O)(=O)N1CCC(C(=O)NCCN2CCN(Cc3ccccc3)CC2)CC1
label 0

Test call for this compound, please: COc1ccccc1N1CCN(C2CCN(C(=O)c3cc(OC)c(OC)c(OC)c3)CC2)CC1
label 0

In this assay, the call recorded for Cc1cc(C)c2c(c1)/C(=C/C(=O)c1ccc(Br)s1)C(=O)N2 was what?
label 0

Per the assay record, what outcome was assigned to O=C(C1CCCN(S(=O)(=O)c2ccc(Cl)cc2)C1)N(Cc1cccs1)C1CC1 (stereo not given) ?
label 0

Per the records of this test, what outcome belongs to Cc1c(C)c2cc(Cl)c(O)c(CN3CCN(C)CC3)c2oc1=O ?
label 0

Outcome? Cc1ccc(C)c(NS(=O)(=O)c2cc(C(=O)N3CCc4ccccc4C3)ccc2Cl)c1
label 0

Status in this test for COC(=O)c1ccc(CSc2nnc(NC(C)C)s2)cc1 ?
label 0

Recorded test call requested for COC(=O)C1=CN(CCCN2CCCC2=O)C=C(C(=O)OC)C1c1ccccc1C(F)(F)F
label 0

Tell me the assay call for CC12CCC(c3c(C(=O)Nc4nccs4)nn(-c4ccccc4)c31)C2(C)C (stereo not given) please.
label 0

----------
- Test system: S. cerevisiae vps1Δ apl2Δ growth inhibition, dose response
- ASSAY_OVERVIEW: growth inhibition of vps1Δ apl2Δ yeast, dose response, post-Golgi transport modulator project, S. cerevisiae, background strain comparison (AID 788)
Calls of active or inactive are those of the source. The rule behind the calls is not given here.
Give one outcome, nothing more. List: 1.0 (active), 0.0 (inactive)

// outcome(item) with item = CCOc1ccc(-c2[nH]ncc2Oc2ccccc2OCC)c(O)c1
1.0

What was the test verdict on O=C1c2cccc3c([N+](=O)[O-])ccc(c23)C(=O)N1c1ccc(Cl)cn1 ?
0.0

Given CCCc1cc(NCCCCO)n2c(nc3ccccc32)c1C#N , state the outcome it received in this test.
0.0

Dear all, I need the recorded test outcome for Clc1ccc(-c2n[nH]c3c2CCC3)cc1Cl , thank you.
0.0

Recorded test outcome, item COc1cc2[nH]c(=S)n(CCCN3CCOCC3)c(=O)c2cc1OC
0.0

Can you look up the reported call for Cc1ccc(C(C)C)c(OCCCN2CC(C)OC(C)C2)c1 (configuration not stated) for me?
1.0

Status in this test for COc1ccc(C2C3=C(CCCC3=O)Nc3nc(-c4cc(OC)c(OC)c(OC)c4)nn32)cc1OC (configuration not stated) ?
0.0

State the result this test recorded for CCOC(=O)COc1ccccc1C1Nc2ccccc2C(=O)N1c1cccc(Cl)c1 (configuration not stated) .
1.0

Could you please tell me the result logged for OC(c1ccc(Cl)cc1Cl)C(Cc1cccnc1)n1cncn1 (configuration not stated) in this assay?
0.0

For CCOC(=O)C(NC(C)=O)(Nc1ccc(S(=O)(=O)Nc2onc(C)c2C)cc1)C(F)(F)F (configuration not stated) , which call appears in the assay record?
0.0

Hello, I am checking results. What call was entered for O=c1cccc2n1CC1CC2CN(S(=O)(=O)c2ccccc2)C1 (configuration not stated) ?
0.0

Any idea what this test logged for COCCNC(=O)C(c1ccc(F)cc1)N(CC1CCCO1)C(=O)CCC(=O)Nc1ccccn1 (configuration not stated) ?
0.0

State the result this test recorded for COc1cccc(-c2cc(C(=O)N3CCN(C(c4ccccc4)c4ccccc4)CC3)no2)c1 .
0.0

In this assay, the call recorded for Cc1ccc(S(=O)(=O)c2c(C)nn(C(C)(C)C)c2OC(=O)c2ccc(Br)o2)cc1 was what?
0.0

Recorded call for CC(C)c1ccc(C2C3CSCC=C3C(C#N)=C(N)C2(C#N)C#N)cc1 (configuration not stated) ?
0.0

# fetch the recorded call for O=C(NCC(c1cccnc1)N1CCN(c2ccc(F)cc2)CC1)OCc1ccccc1 (configuration not stated) here
1.0

I would be grateful if you could indicate the recorded call for COC(=O)c1ccc(NC(=O)c2cn(-c3ccccc3)nc2-c2ccncc2)cc1 .
0.0

Query: recorded result category for CCCCCOc1ccc(Cl)cc1CN1CCOCC1 in this test
1.0

Answer briefly: the call reported for COc1ccc2nc(NCCCNC(=O)c3cc(OC)c(OC)c(OC)c3)c(C#N)cc2c1 in this assay.
0.0

Dear all, I need the recorded test outcome for O=S(=O)(c1ccc(Cl)cc1)N1CCN(C2CCN(Cc3ccccc3)CC2)CC1 , thank you.
1.0

What did the test return for Cc1cccc(-c2c3c(=O)n(C)c(=O)n(C)c3cn2C2CCCCC2)c1 ?
0.0

Give the logged outcome of this assay for the following molecule: CCc1cc2c(=O)c(Oc3ccccc3F)c(C)oc2c(CN(C)C)c1O
0.0

----------
- Test system: S. cerevisiae vps1Δ apl2Δ growth inhibition, dose response
- ASSAY_OVERVIEW: growth inhibition of vps1Δ apl2Δ yeast, dose response, post-Golgi transport modulator project, S. cerevisiae, background strain comparison (AID 788)
Activity calls are given as the source filed them. How the calls were made is not given here.
Assign a class; possible classes are y for active, n for inactive

Recorded test call requested for Cc1cccc(-n2c(N)c(C(=O)NCCN3CCOCC3)c3nc4ccccc4nc32)c1
n

Hey, what did the test say about CC(c1nnc(SCn2nnc3ccccc3c2=O)n1-c1ccc(Cl)cc1)N(C)C (stereo not given) ?
y

Test call for this compound, please: Cc1ccc(S(=O)(=O)N(CC(=O)N2CCC(C(N)=O)CC2)c2cccc(C(F)(F)F)c2)cc1
n

Kindly provide the recorded test outcome for the following compound: Cc1ccc(OCC(O)CN2CCN(Cc3ccc4c(c3)OCO4)CC2)c(C)c1 (stereo not given)
y

Which result was noted for this compound in the test: CC1CN(CCCCOc2ccc(C(C)C)cc2)CC(C)O1 (stereo not given)
y

Test call, this compound: O=C(Cn1nnc(-c2ccc(S(=O)(=O)N3CCCC3)cc2)n1)NCC1CCCO1 (stereo not given)
n

Test call for this compound, please: COc1cccc(C(=O)N2CCN(C3CCC(c4ccccc4)CC3)CC2)c1OC (stereo not given)
y

Called result for Cc1ccn2cc(-c3nonc3C)cc2c1
n

Any idea what this test logged for Cc1cc(C)n2nc(C(=O)NCc3ccccc3)cc2n1 ?
n

For this compound, state the assay outcome: O=C1OCC2=C1C(c1ccc(F)cc1)Sc1ccccc1N2 (stereo not given)
y

How did this test come out for CC(=O)c1ccc(N2CCN(C(=O)c3ccc(Br)cc3)CC2)c(F)c1 ?
y

// outcome(item) with item = O=C1OCC(CO)(CO)N=C1NNc1ccc(Cl)c(Cl)c1
y

I'd appreciate the recorded outcome for O=[N+]([O-])c1ccc(N/N=C/c2c[nH]c3ccccc23)c(S(=O)(=O)Nc2ccc(Cl)cc2)c1 from this test.
y

Identify the outcome logged in this assay for the compound shown: CCCn1c(SCc2cc(=O)oc3ccc4ccccc4c23)n[nH]c1=O
n

Could you check what this test reported for CCn1c(=O)[nH]c2cc(C(=O)N3CCN(c4ccccc4)CC3)ccc2c1=O ?
n

In this assay, the call recorded for Cc1cc(=O)oc2c(CN3CCCCC3)c(O)c(Cl)cc12 was what?
n

Assay result, entry Cc1ccc(C(=O)NCc2occc2C(=O)O)o1 — outcome?
n

Lab log entry: Cc1cccc(OCC(=O)O/N=C(\N)Cc2ccc(Cl)cc2)c1 — outcome as called in the assay?
n

Assay outcome for CCC(C)c1ccc(OCCCCN2CCOCC2)cc1 (stereo not given) : what was it?
y

GET /call?item= CCOc1ccc(NC(=O)C/C(N)=N/O)cc1 returns the recorded outcome of this test.
n

----------
- System: S. cerevisiae vps1Δ apl2Δ growth inhibition, dose response
- ASSAY_OVERVIEW: growth inhibition of vps1Δ apl2Δ yeast, dose response, post-Golgi transport modulator project, S. cerevisiae, background strain comparison (AID 788)
Activity calls are given as the source filed them. The rule behind the calls is not given here.
Entry note: the call must match one of active, inactive

Which result was noted for this molecule in the test: O=C(NC(C(=O)c1ccccc1)N1CCCCC1)c1ccccc1 (stereo not given)
inactive

What outcome does the record of this test show for C=CCc1ccc(OCCCCN2CC(C)OC(C)C2)c(OC)c1 (stereo not given) ?
active

Please share the test call associated with Cc1cccc(N2CCN(CC(=O)Nc3nccs3)CC2)c1C .
inactive

# lookup: test call for CCCCSCCCNC(=O)Nc1cccc(OC)c1
inactive

Hi team, can someone confirm the assay call for CC(NC(=O)CSc1nc2c(cc1C#N)CN(C)CC2)c1ccccc1 (stereo not given) ?
inactive
